Experiment: NIH3T3 cell viability loss – ATP luminescence, mouse fibroblasts, counter-screen, dose response (AID 2010);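 note: cells exposed to compound for about 90 hours before reading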
Type: functional, cell-based
Activity calls are given as the source filed them.
observed_property: EC50

* O=C(Nc1ccc2ccccc2c1)c1cn(-c2ccccc2)nc1-c1cccs1 | > 60 µM (not active)
* O=[N+]([O-])c1cc(S(=O)(=O)Nc2cccc(Cl)c2)ccc1N=Nc1c(O)[nH]c2ccccc12 | > 60 µM (not active)
* Cc1cccc(N(CC(=O)NC2CCCC2)C(=O)c2cc3cc4cccc(C)c4nc3s2)c1C | > 60 µM (not active)
* CN1CCN(C(=O)COc2ccc(N(C)S(=O)(=O)c3ccc(F)cc3)cc2)CC1 | > 60 µM (not active)
* NC(=O)C1(N2CCCCC2)CCN(c2nc(-c3ccc(Br)cc3)cs2)CC1 | > 60 µM (inconclusive)
* COC(=O)c1sc(NC(=O)c2ccc([N+](=O)[O-])o2)c(C#N)c1C | > 60 µM (not active)
* Nc1nonc1-n1nnc(C(=O)N/N=C/c2cc(Br)ccc2O)c1CNc1ccccc1 | 5.03 µM (active)
* CCC(C)C(=O)Nc1nc(C)c(-c2csc(Nc3ccc(Cl)cc3)n2)s1 (stereo not drawn) | > 60 µM (not active)

---

Measured AC50 on Cytochrome P450 3A4 (Homo sapiens) follows.
Sequence (P08684 whole entry): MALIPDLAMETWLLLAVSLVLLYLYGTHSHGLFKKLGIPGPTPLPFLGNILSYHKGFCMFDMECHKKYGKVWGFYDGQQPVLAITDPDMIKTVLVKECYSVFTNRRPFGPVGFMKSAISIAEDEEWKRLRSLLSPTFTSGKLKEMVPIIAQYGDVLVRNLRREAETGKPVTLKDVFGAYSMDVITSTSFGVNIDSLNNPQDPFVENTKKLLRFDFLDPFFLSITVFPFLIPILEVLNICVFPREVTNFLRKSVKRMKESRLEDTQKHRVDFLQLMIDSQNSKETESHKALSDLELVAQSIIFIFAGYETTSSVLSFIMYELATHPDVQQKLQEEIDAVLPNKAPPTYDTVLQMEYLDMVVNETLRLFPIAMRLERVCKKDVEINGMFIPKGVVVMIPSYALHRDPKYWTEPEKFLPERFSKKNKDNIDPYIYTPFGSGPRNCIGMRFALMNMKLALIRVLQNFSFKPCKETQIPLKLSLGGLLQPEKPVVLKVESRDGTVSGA
observed_property: AC50

- COc1ccc2c(c1)C(=O)N(Cc1ccco1)C(=O)/C2=C\Nc1c(C)n(C)n(-c2ccccc2)c1=O: 8.91 µM (inconclusive)
- COc1ccc(-c2csc3c2[N+]2=CCC=C2C3[O-])cc1 (configuration not stated): 3.16 µM (inconclusive)
- O=c1c2ccc(Cl)cc2nc(-c2cccc(C(F)(F)F)c2)n1O: 28.2 µM (inconclusive)
- CCC(C)C1NC(=S)N(C2CCCCC2)C1=O (configuration not stated): 17.8 µM (inconclusive)
- Cc1ccc2nc(CC(=O)c3ccc4ccccc4c3)c(O)nc2c1: 3.98 µM (inconclusive)
- N#C/C(=C\c1cc([N+](=O)[O-])c(N2CCCCC2)cc1N1CCCCC1)c1nn(-c2ccccc2)c(N)c1C#N: 2.24 µM (inconclusive)
- CCOC(=O)NCc1ccc2c(c1)cc(C)n2C: 14.1 µM (inconclusive)
- CCc1nnc2sc(-c3ccc(NC(=O)c4ccco4)cc3)nn12: 0.708 µM (inconclusive)
- O=C(CSCc1ccccc1Cl)NNC(=O)c1ccccc1: 11.2 µM (inconclusive)
- CN(C)C(=O)c1ccc(-c2ccc3ncnc(Nc4ccccc4)c3c2)cc1: 7.94 µM (inconclusive)
- N[C@H](C(=O)O)[C@H](O)C(=O)O: 0.0316 µM (inconclusive)
- CC(=O)c1cccc(NC(=O)CSCc2ccccc2)c1: 28.2 µM (inconclusive)
- Cc1nc(SC2CC(=O)N(c3ccc([N+](=O)[O-])cc3)C2=O)nc2c1CCCC2 (configuration not stated): 20 µM (inconclusive)
- CC1CC(C)CN(C/C=C/c2ccccc2[N+](=O)[O-])C1 (configuration not stated): 25.1 µM (inconclusive)
- CC(C)OCCCNC(=O)C1CC(=O)N(C2CCCCCCC2)C1 (configuration not stated): 25.1 µM (inconclusive)
- COC(=O)[C@@H]1CC[C@H](C)[C@@H](c2ccc(C)cc2)N1C(=O)c1ccc(/C=N\OC[C@@H](O)COCc2ccco2)cc1: 1.26 µM (inconclusive)
- CCOC(=O)CNS(=O)(=O)c1cc(-c2nn(C)c(=O)c3ccccc23)ccc1C: 39.8 µM (inconclusive)
- CCOC(=O)N1CCC(NC(=O)CCc2nc(C3=CCN(C)CC3)no2)CC1: 25.1 µM (inconclusive)
- COC(=O)N1CCC2(CCCN(C(=O)Nc3cccc(C#N)c3)C2)CC1: 6.31 µM (inconclusive)
- Cc1nnc(C)n1/N=C/c1ccc(-c2ccccc2)cc1: 22.4 µM (inconclusive)
- C=CC[C@@H]1C=C[C@@H](O/N=C\C[C@@H]2C=C[C@H](OC(C)=O)[C@H](COC(C)=O)O2)[C@@H](CO)O1: 3.98 µM (inconclusive)
- OCCNCCCOc1cccc(Cl)c1Cl: 31.6 µM (inconclusive)
